protocol description: small-molecule microarray binders of probe aXIP, primary screen, biochemical, NeuroSMM set, 635/667 nm fluorescence (AID 1119);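 further: probe is the protein aXip251-270 applied at 1 µg/mL to compound-printed slides; binding of probe to printed compounds measured as 667 nm fluorescence plus signal to noise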
assay setup: higher = more signal, called active from +8 up or from −8 down
Each entry gets Not fulfilled if its composite Z-score stays under 0.3, and Fulfilled if its composite Z-score is 0.3 or above.

(Q) State whether the measured composite Z-score reaches 0.3, counting equality as reaching it, for CO[C@H]1COC(=O)[C@H](C)NC(=O)CC=C[C@@H](C)[C@H](NS(=O)(=O)c2ccc(C)cc2)COC(=O)CC=C[C@@H]1C
(A) Not fulfilled

(Q) State whether the measured composite Z-score reaches 0.3, counting equality as reaching it, for C=CCC(OC(C)=O)[C@@H]1[C@@H](N(Cc2ccc(-c3ccccc3)cc2)C(=O)c2ccc(-c3ccccc3)cc2)c2cc(OCCCO)ccc2N1C(=O)Cc1ccc(OC)cc1 (stereo partly drawn)
(A) Fulfilled

(Q) State whether the measured composite Z-score reaches 0.3, counting equality as reaching it, for C[C@H]1C2[C@H](Cc3ccccc3)NC(=O)[C@]23C(=O)N[C@H](Cc2ccccc2)C(=O)N[C@@H](Cc2ccccc2)C(=O)NC/C=C\C/C=C/C3[C@@H]2O[C@]12C (stereo partly drawn)
(A) Fulfilled

(Q) State whether the measured composite Z-score reaches 0.3, counting equality as reaching it, for C=CCC(OC(C)=O)[C@@H]1[C@@H](N(Cc2cc3ccccc3o2)C(=O)Cc2ccc(F)cc2)c2cc(OCCCO)ccc2N1C(=O)c1ccc(-c2ccccc2)cc1 (stereo partly drawn)
(A) Not fulfilled

(Q) State whether the measured composite Z-score reaches 0.3, counting equality as reaching it, for NC(=O)NCC#Cc1ccc2c(c1)[C@]1(C(=O)N2)[C@H](C(N)=O)[C@H]2C(=O)O[C@H](c3ccccc3)[C@H](c3ccccc3)N2[C@@H]1c1ccccc1OCCO
(A) Not fulfilled

(Q) State whether the measured composite Z-score reaches 0.3, counting equality as reaching it, for C=CCN(C(=O)C1N(c2ccc(CCO)cc2)C(=O)C2C(C(=O)O)C3C=CC21O3)C(C)(C)C (stereo not drawn)
(A) Not fulfilled

(Q) State whether the measured composite Z-score reaches 0.3, counting equality as reaching it, for C=CCOC(=O)[C@@H]1[C@H]2C(=O)O[C@H](c3ccccc3)[C@H](c3ccccc3)N2[C@H](c2ccc(OCCOC(=O)[C@H]3C[C@H]4C(=O)N5CCC[C@H]5C(=O)N4[C@H]3c3ccc(O)cc3)cc2)[C@@]12C(=O)Nc1ccccc12
(A) Not fulfilled

(Q) State whether the measured composite Z-score reaches 0.3, counting equality as reaching it, for O=C1OCCC=C[C@H]2OC34C=CCN(Cc5ccccc5)C(=O)[C@H]3N(CCO)C(=O)[C@@H]4C12 (stereo partly drawn)
(A) Not fulfilled

(Q) State whether the measured composite Z-score reaches 0.3, counting equality as reaching it, for COc1ccc(C(=O)Nc2ccc(CN3C(=O)[C@]4(O[C@H](CCn5cc(CCO)nn5)[C@@H]([Si](C)(C)c5ccc(OC)cc5)[C@@H]4C)c4ccccc43)cc2)cc1
(A) Not fulfilled

(Q) State whether the measured composite Z-score reaches 0.3, counting equality as reaching it, for O=C1OCCC/C=C\[C@H]2OC34C=CCN(CCN5CCOCC5)C(=O)[C@H]3N(CCCCCO)C(=O)[C@@H]4C12 (stereo partly drawn)
(A) Fulfilled

(Q) State whether the measured composite Z-score reaches 0.3, counting equality as reaching it, for O=C1C2C=CC(C(O)C(c3ccccc3)c3ccccc3)N(Nc3ccc([N+](=O)[O-])cc3)C2C(=O)N1c1ccccc1 (stereo not drawn)
(A) Not fulfilled

(Q) State whether the measured composite Z-score reaches 0.3, counting equality as reaching it, for COc1cc(CO)cc(I)c1O[C@H]1C=C(C(=O)NCCO)C[C@@H](NCCc2c[nH]c3ccccc23)[C@@H]1O
(A) Not fulfilled

(Q) State whether the measured composite Z-score reaches 0.3, counting equality as reaching it, for CCOC(=O)C[C@H]1[C@H](OC(=O)Cc2ccc3c(c2)OCO3)[C@@H](NC(=O)CC(C)C)c2cc(OCCCO)ccc2N1C(=O)c1ccccc1
(A) Fulfilled

(Q) State whether the measured composite Z-score reaches 0.3, counting equality as reaching it, for COc1ccc(CCN2C(=O)[C@@]3(c4ccc([N+](=O)[O-])cc4)CC(=O)N(CC45CC6CC(CC(C6)C4)C5)[C@@H]3c3ccc(CO)cc32)cc1
(A) Fulfilled

(Q) State whether the measured composite Z-score reaches 0.3, counting equality as reaching it, for CCCNC(=O)[C@@H]1c2ccccc2C(=O)N(C2CCCCC2)[C@H]1c1ccc(CO)cc1
(A) Fulfilled

(Q) State whether the measured composite Z-score reaches 0.3, counting equality as reaching it, for O=C1OCC=C[C@H]2OC34C=CCN(Cc5ccccc5)C(=O)[C@H]3N(CCO)C(=O)[C@@H]4[C@@H]12 (stereo partly drawn)
(A) Fulfilled

(Q) State whether the measured composite Z-score reaches 0.3, counting equality as reaching it, for [N-]=[N+]=NCc1ccccc1C[C@]1(C(=O)N2CCCCC2)N=C(c2ccc(OCCCO)cc2)O[C@H]1c1ccccc1CN=[N+]=[N-]
(A) Fulfilled

(Q) State whether the measured composite Z-score reaches 0.3, counting equality as reaching it, for COC(=O)[C@@]1(Cc2ccccc2N=[N+]=[N-])N=C(c2ccc(OCCCO)cc2)O[C@H]1c1ccccc1CN=[N+]=[N-]
(A) Not fulfilled

(Q) State whether the measured composite Z-score reaches 0.3, counting equality as reaching it, for CCCC=C(CCC)[C@@H](NC(=O)c1ccc(C(F)(F)F)cc1)c1ccccc1
(A) Not fulfilled

(Q) State whether the measured composite Z-score reaches 0.3, counting equality as reaching it, for O=C(NCc1ccccc1)c1ccc(Br)cc1[N+](=O)[O-]
(A) Not fulfilled

(Q) State whether the measured composite Z-score reaches 0.3, counting equality as reaching it, for C=C(CCCC)/C(=C/C[C@H](OC(=O)c1ccncc1)c1cccc(OCCO)c1)c1cc(C(=O)OC)ccc1OC
(A) Not fulfilled

(Q) State whether the measured composite Z-score reaches 0.3, counting equality as reaching it, for CCOC(=O)C[C@H]1[C@H](OC(=O)Cc2ccc3c(c2)OCO3)[C@@H](NC(=O)c2ccc3ccccc3c2)c2cc(OCCCO)ccc2N1C(=O)Cc1ccc(OC)cc1
(A) Fulfilled

(Q) State whether the measured composite Z-score reaches 0.3, counting equality as reaching it, for COC(=O)c1ccc(C#CC(NP(=O)(c2ccccc2)c2ccccc2)c2ccccc2)cc1 (stereo not drawn)
(A) Fulfilled

(Q) State whether the measured composite Z-score reaches 0.3, counting equality as reaching it, for C=CC[C@@]1(C(=O)N2CCOCC2)N=C(c2ccc(OCCCO)cc2)O[C@@H]1c1ccccc1
(A) Not fulfilled

(Q) State whether the measured composite Z-score reaches 0.3, counting equality as reaching it, for COc1ccc(NN2C(C(O)c3cc(OC)c(OC)c(OC)c3)C=CC3C(=O)N(C4CCCCC4)C(=O)C32)cc1 (stereo not drawn)
(A) Fulfilled

(Q) State whether the measured composite Z-score reaches 0.3, counting equality as reaching it, for CC(C)NC(=O)[C@@]1(Cc2ccccc2I)c2ccccc2C(=O)N(C2CCCCC2)[C@H]1c1ccc(CO)cc1
(A) Not fulfilled

(Q) State whether the measured composite Z-score reaches 0.3, counting equality as reaching it, for COc1ccc([Si](C)(C)[C@H]2[C@H](CCO)O[C@@]3(C(=O)N(Cc4ccc(N5CCCCC5=O)cc4)c4ccccc43)[C@@H]2C)cc1
(A) Not fulfilled

(Q) State whether the measured composite Z-score reaches 0.3, counting equality as reaching it, for C#CCCCON=C1C[C@@H](O)[C@@H](O)[C@@H]2[C@@H]3C(=O)N(Cc4ccc5c(c4)OCO5)C(=O)[C@@H]3CC[C@H]12
(A) Fulfilled

---

system under test: Streptavidin (Streptomyces avidinii)
protocol description: streptavidin binders on small-molecule microarray, primary screen, artefact control for SMM compound annotation, biophysical, 635/667 nm fluorescence (AID 1147);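 further: signal reflects streptavidin binding to arrayed compounds as a control protein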
assay setup: streptavidin binding, higher = more signal
Each entry gets Not fulfilled if its composite z-score stays under 0.03, and Fulfilled if its composite z-score is 0.03 or above.

(Q) State whether the measured composite z-score reaches 0.03, counting equality as reaching it, for O=C1O[C@H](c2ccccc2)[C@H](c2ccccc2)N2[C@H]1[C@@H](C(=O)NC[C@H](O)c1ccccc1)[C@]1(C(=O)Nc3ccc(C#CC4=CCCCC4)cc31)[C@H]2c1ccc(OCCO)cc1
(A) Fulfilled

(Q) State whether the measured composite z-score reaches 0.03, counting equality as reaching it, for Cc1ccc(N2C(=O)c3ccccc3[C@](C)(C(=O)O)[C@@H]2c2ccc(CO)cc2)nc1
(A) Not fulfilled

(Q) State whether the measured composite z-score reaches 0.03, counting equality as reaching it, for CN(C)CCCC[C@@H]1NC(=O)[C@@H]2C[C@H](C(=O)O)[C@H](c3ccc(O)cc3)N2C1=O
(A) Fulfilled

(Q) State whether the measured composite z-score reaches 0.03, counting equality as reaching it, for CCN1C(C)=C(C(=O)OC)[C@@H](c2ccccc2)N2C(=O)[C@@]3(C(=O)OC)O[C@@]12[C@@H]1C(=O)CCC[C@@H]13
(A) Not fulfilled

(Q) State whether the measured composite z-score reaches 0.03, counting equality as reaching it, for CSCC[C@@H]1NC(=O)CC=C[C@@H](C)COC(=O)[C@H](CCSC)NC(=O)CC=C[C@@H](C)COC1=O
(A) Not fulfilled

(Q) State whether the measured composite z-score reaches 0.03, counting equality as reaching it, for C=C(CCCC)C(=O)CC[C@@H](OC(=O)c1cccnc1)c1cccc(OCCO)c1
(A) Not fulfilled

Where do these numbers come from? They come from PubChem BioAssay.
